# system name: MAP2K3 (human)
# experiment summary: KINOMEscan competition binding
# test parameters: compound 10.0 µM
quantity: kinase still bound, per cent of control (%)
// return numeric value only (unit: %, not printed)

For C=CC(=O)Nc1ccc(CN(C(=O)Nc2c(Cl)c(OC)cc(OC)c2Cl)c2cc(Nc3ccc(N4CCN(C)CC4)cc3)ncn2)cc1 , what is its reported kinase still bound, per cent of control?
100

// lookup kinase still bound, per cent of control for CCN1CCN(C(=O)Cc2ccc(Nc3ncc(F)c(Nc4ccc(C(=O)Nc5ccccc5Cl)cc4)n3)cc2)CC1
57

----------
# system name: PIM1 (human) (UniProt P11309)
# Sequence (P11309 whole entry, looked up): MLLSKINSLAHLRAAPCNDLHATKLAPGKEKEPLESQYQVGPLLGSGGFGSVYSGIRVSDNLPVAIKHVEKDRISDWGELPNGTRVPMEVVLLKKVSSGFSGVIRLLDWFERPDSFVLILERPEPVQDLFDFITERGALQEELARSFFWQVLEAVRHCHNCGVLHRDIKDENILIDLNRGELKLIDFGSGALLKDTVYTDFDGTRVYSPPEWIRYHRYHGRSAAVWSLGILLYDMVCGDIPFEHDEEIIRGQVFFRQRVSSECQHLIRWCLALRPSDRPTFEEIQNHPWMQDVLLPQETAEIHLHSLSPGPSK
# experiment summary: KINOMEscan competition binding
# test parameters: compound 10.0 µM
quantity: kinase still bound, per cent of control (%)
Value expressed in %; do not type the unit.

Look over these answered cases.
Notebook: pull reported kinase still bound, per cent of control for PIM1 (human) (UniProt P11309), entry O=C1NC(=O)/C(=C/c2ccc3nccc(-c4ccncc4)c3c2)S1
1

Give kinase still bound, per cent of control (PIM1 (human) (UniProt P11309)) of the following compound: C=CC(=O)Nc1cc(-n2c(=O)ccc3cnc4ccc(-c5cn[nH]c5)cc4c32)ccc1C
70

GET /values?readout=kinase still bound, per cent of control&system=PIM1 (human) (UniProt P11309)&item= COc1cc2ncn(-c3cc(OCc4ccccc4C(F)(F)F)c(C(N)=O)s3)c2cc1OC
89

Next:
Record CCN(CC)CCCCNc1ncc2cc(-c3cc(OC)cc(OC)c3)c(NC(=O)NC(C)(C)C)nc2n1 : what is its kinase still bound, per cent of control with PIM1 (human) (UniProt P11309)?
100

Item Cc1n[nH]c2ccc(-c3cncc(OC[C@@H](N)Cc4c[nH]c5ccccc45)c3)cc12 with PIM1 (human) (UniProt P11309) - kinase still bound, per cent of control?
0.4

Where do the numbers come from? From the kinase profiling compilation of Christmann-Franck et al. (2016).
